assay: Tanguay_ZF_120hpf_SWIM_legacy: (Legacy) Oregon State University Tanguay Lab 120 Hour Post-fertilization zebrafish Assay for Swim Bladder Malformation (AID 2283654);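 further: swim bladder malformation in each larva scored yes or no under brightfield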
Inconclusive results are not listed. Active and inactive are the calls of the source. How the source made its calls: active means hit-call score of the fitted dose curve at least 0.9, where 1 is the maximum; inconclusive means response in the unintended direction; inactive means score below 0.9.
Possible outcomes: yes (1) = active, no (0) = inactive

1) Brc1ccc(Oc2ccccc2)cc1    no (0)
2) Clc1ccc(C(c2ccc(Cl)cc2)C(Cl)(Cl)Cl)cc1    no (0)
3) ClC1=C(Cl)C2(Cl)C3C(Cl)C=CC3C1(Cl)C2(Cl)Cl (stereo not given)    no (0)
4) CCOc1cccc(C2(N3CCN(c4ccccc4)CC3)CCC(C)CC2)c1 (stereo not given)    no (0)
5) Oc1ccc2ccc3cccc4ccc1c2c34    yes (1)
6) COC(=O)c1ccccc1N    no (0)
7) N#CC(Br)(Br)C(N)=O    no (0)
8) CO[C@@H]1[C@H](OC(=O)NC(=O)CCl)CC[C@]2(CO2)[C@H]1[C@@]1(C)O[C@@H]1CC=C(C)C    no (0)
9) O=C1CCCO1    no (0)
10) Clc1ccccc1Cl    no (0)
11) CNC(=O)Oc1cccc2c1OC(C)(C)C2    no (0)
12) COC(=O)Nc1nc2ccccc2[nH]1    no (0)
13) O=C(Nc1ccccc1)c1ccccc1I    no (0)
14) Clc1ccc(Cl)c(Cl)c1    no (0)
15) CS(=O)(=O)NC(=O)c1cc(Oc2ccc(C(F)(F)F)cc2Cl)ccc1[N+](=O)[O-]    no (0)
16) Oc1ccccc1Cl    no (0)
17) Nc1ccc(N=Nc2ccccc2)cc1    no (0)
18) OCCOCCO    no (0)
19) Nc1ccc(Cc2ccc(N)cc2)cc1    no (0)
20) CCN(CC)N=O    no (0)
21) ClC1=C(Cl)[C@]2(Cl)[C@H]3[C@H]([C@@H]4C=C[C@H]3C4)[C@@]1(Cl)C2(Cl)Cl    no (0)
22) Nc1ccc(Cl)cc1N    no (0)
23) C[N+](C)(C)CC1CO1 (stereo not given)    no (0)
24) C1=Cc2cccc3cccc1c23    no (0)
25) Cc1cccc(N)c1N    no (0)
26) [O-][Cl+]O    no (0)
27) Nc1ccc([N+](=O)[O-])cc1    no (0)
28) O=[N+]([O-])c1ccc(Oc2ccc(Cl)cc2Cl)cc1    no (0)
29) N#CC(Br)Br    no (0)
30) CCCCC(CC)COC(=O)c1ccc(C(=O)OCC(CC)CCCC)c(C(=O)OCC(CC)CCCC)c1 (stereo not given)    no (0)

###

read-out: Tumor necrosis factor receptor 1 (TNFRSF1A), TNFRSF1A (gene 7132); test: LTEA_HepaRG_TNFRSF1A: Life Technologies and Expression Analysis (LTEA) Assay for Tumor necrosis factor receptor 1 (TNFRSF1A) using HepaRG (AID 2283535); settings: mRNA level, 48 h; actives raise or lower the signal
Active and inactive are the calls of the source. How the source made its calls: active means hit-call score of the fitted dose curve at least 0.9, where 1 is the maximum; inactive means score below 0.9.
Possible outcomes: Y = active, N = inactive

1. OCCOCCO    N
2. Cc1ccc([N+](=O)[O-])cc1    N
3. CCN(CC)CCO    N
4. c1ccc(C2CO2)cc1 (centres undefined)    N
5. Nc1cc(Cl)cc(C(=O)O)c1Cl    N
6. Oc1ccccc1Cl    N
7. CN(C)C(=O)Nc1ccc(Cl)cc1    N
8. Clc1ccccc1Cl    N
9. Clc1ccc(Cl)c(Cl)c1    Y
10. Nc1ccc(Cc2ccc(N)cc2)cc1    N
11. Nc1ccc(Oc2ccc(N)cc2)cc1    N
12. CCCCCOC(=O)c1ccccc1C(=O)OCCCCC    N
13. O=C(N[C@H](c1ccccc1)[C@@H]1CN2CCC1CC2)c1c(Cl)ccc(C(F)(F)F)c1Cl    Y
14. CCCCCCCCn1sccc1=O    N
15. COc1cc(C=O)cc2c1[C@H](COC(N)=O)[C@]1(OC(C)=O)ON2C[C@H]2[C@@H]1N2C(C)=O    N
16. c1ccc2c(c1)-c1cccc3cccc-2c13    N
17. C1=Cc2cccc3cccc1c23    N
18. CS(=O)(=O)NC(=O)c1cc(Oc2ccc(C(F)(F)F)cc2Cl)ccc1[N+](=O)[O-]    N
19. COP(=S)(OC)SCN1C(=O)c2ccccc2C1=O    N
20. Cc1ccc(N=C=O)cc1N=C=O    N
21. CC(C)N(Cc1ccccc1)C(=O)C(C)(C)C    N
22. C=CCc1ccc2c(c1)OCO2    N
23. CN(C)c1ccc(C(=O)c2ccc(N(C)C)cc2)cc1    N
24. CN(C)[C@@H]1C(=O)C(C(N)=O)=C(O)[C@@]2(O)C(=O)C3=C(O)c4c(O)cccc4[C@@](C)(O)[C@H]3C[C@@H]12    N
25. CCOc1cccc(C2(N3CCN(c4ccccc4)CC3)CCC(C)CC2)c1 (centres undefined)    N
26. ClC1=C(Cl)C2(Cl)C3C(Cl)C=CC3C1(Cl)C2(Cl)Cl (centres undefined)    N
27. CCCCCCCCCCCCCN1CC(C)OC(C)C1 (centres undefined)    N
28. CC(O)CCO (centres undefined)    N
29. Oc1ccc2ccc3cccc4ccc1c2c34    N
